Target of assay: T1, FZD4 cysteine-rich domain (CRD), MYC-tagged and GPI-anchored on CHO cells (human, UniProt Q9ULV1 42-167, GPI anchor)
T1 construct: also called FZD4 CRD; CHO-myc-FZDGPI; not shown: MYC tag and GPI anchor signal
T1 sequence: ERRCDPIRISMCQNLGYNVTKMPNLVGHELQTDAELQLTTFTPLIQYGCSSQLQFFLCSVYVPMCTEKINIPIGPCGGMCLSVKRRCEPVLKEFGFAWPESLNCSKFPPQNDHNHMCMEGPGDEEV
Measurement protocol: immunofluorescence, CHO-CRD cells
Quantity kind: binding result

1. Fab-2934 (Fab, V domains shown, Fab; also called Fv-2934) VH: EVQLVESGGGLVQPGGSLRLSCAASGFNISYSYMHWVRQAPGKGLEWVASIYSSSGSTSYADSVKGRFTISADTSKNTAYLQMNSLRAEDTAVYYCARGAIDYWGQGTLVTVSS VL: DIQMTQSPSSLSASVGDRVTITCRASQSVSSAVAWYQQKPGKAPKLLIYSASSLYSGVPSRFSGSRSGTDFTLTISSLQPEDFATYYCQQWYHYGLITFGQGTKVEIK = no binding
2. Fab-2929 (Fab, V domains shown, Fab; also called Fv-2929) VH: EVQLVESGGGLVQPGGSLRLSCAASGFNISYYYIHWVRQAPGKGLEWVASIYPSSSSTSYADSVKGRFTISADTSKNTAYLQMNSLRAEDTAVYYCARGAMDYWGQGTLVTVSS VL: DIQMTQSPSSLSASVGDRVTITCRASQSVSSAVAWYQQKPGKAPKLLIYSASSLYSGVPSRFSGSRSGTDFTLTISSLQPEDFATYYCQQWYSSYGLITFGQGTKVEIK = no binding
3. Fab-2911 (Fab, V domains shown, Fab; also called Fv-2911) VH: EVQLVESGGGLVQPGGSLRLSCAASGFNIYYSSMHWVRQAPGKGLEWVAYIYPYSGYTSYADSVKGRFTISADTSKNTAYLQMNSLRAEDTAVYYCARYFWWYGFDYWGQGTLVTVSS VL: DIQMTQSPSSLSASVGDRVTITCRASQSVSSAVAWYQQKPGKAPKLLIYSASSLYSGVPSRFSGSRSGTDFTLTISSLQPEDFATYYCQQGPWYPFTFGQGTKVEIK = no binding
